- System: Pseudomonas stutzeri strain LH4:15, ATCC PTA-8823
- experiment description: Aerobic growth response (turbidity) to varying concentrations of potential microbial nutrients; note: key: − = no turbidity; + = slight turbidity; ++ = moderate to heavy turbidity
- Format: cell-based
- condition parameters: 50 g/L; 48 hours of incubation
Counter-ions that a name gives are not always drawn.

molecule: O=[N+]([O-])[O-].[Na+] [NaNO3, sodium nitrate]
system name: Pseudomonas stutzeri strain LH4:15, ATCC PTA-8823
Growth response (turbidity): +
//
molecule: NC(N)=O
system name: Pseudomonas stutzeri strain LH4:15, ATCC PTA-8823
Growth response (turbidity): −
//
molecule: OCCO
system name: Pseudomonas stutzeri strain LH4:15, ATCC PTA-8823
Growth response (turbidity): ++
//
molecule: OCC(O)CO
system name: Pseudomonas stutzeri strain LH4:15, ATCC PTA-8823
Growth response (turbidity): ++
//
molecule: CCOC=O [Ethyl formate]
system name: Pseudomonas stutzeri strain LH4:15, ATCC PTA-8823
Growth response (turbidity): −
//
molecule: CCO
system name: Pseudomonas stutzeri strain LH4:15, ATCC PTA-8823
Growth response (turbidity): −
//
molecule: CC(O)C(=O)[O-].[Na+] (stereo not shown) [Na lactate, sodium lactate]
system name: Pseudomonas stutzeri strain LH4:15, ATCC PTA-8823
Growth response (turbidity): −

Data origin: patent US9587471B2
